Listing: log10 of IC50 of selected binders
# Tgt: T1, PVRIG (FACS-based competition assay of FIGS. 7 and 15) (Homo sapiens, UniProt Q6DKI7)
# T1 construct: made because the format of the assay is only described in U.S. Ser. No. 15/048,967; also called human PVRIG
# T1 sequence (receptor, looked up): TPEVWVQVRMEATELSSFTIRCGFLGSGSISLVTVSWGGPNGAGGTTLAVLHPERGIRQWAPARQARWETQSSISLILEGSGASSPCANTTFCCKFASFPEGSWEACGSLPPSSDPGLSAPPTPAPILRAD
# Method Notes: FACS-based competition assay of PVRIG blocking; format and competitor not given
Assay Readout: log10 of IC50 (log10 of the value in µM)

{"Binder": "CHA.7.537 (antibody, V domains shown) VH: QVQLKESGPGLVAPSQSLSITCTVSGFSLIGHGVNWIRQPPGKGLEWLGVIWGDGNTDYNSALKSRLSISKDNSKSQVFLKMNSLQTDDTARYFCAVNSAMDYWGQGTAVTVSS VL: NIVMTQSPKSMSMSVGERVTLNCTASENVASFVSWYQQKPEQSPKLLIYGTSNRYTGVPDRFTGSGSATDFTLTISSVQAEDLGDYHCGQSYNYPFTFGSGTKLEIE", "log10 of IC50": -1.41}
{"Binder": "CHA.7.506 (antibody, V domains shown) VH: QVQLQQSGAELTRPGASVNLSCKASGYTFTSYWMQWVKQRPGQGLEWIGAIYPGDGDTRFNQKFKGKATLTADESSSTAYMQLSSLASEDSAVYYCATYYRYDDYWGQGTTLTVSS VL: QIVLTQSPAIMSASPGEKVTMTCSASSSVSYMHWYQQKSGTSPKRWIYDTSKLASGVPTRFSGSGSGTSYSLTISSMEAEDAATYYCQQWSSNPYTFGGGTKLEIK", "log10 of IC50": -1.50}
{"Binder": "CHA.7.526 (antibody, V domains shown) VH: QVQLKESGPGLVAPSQSLSITCTVSGFSLTAYNINWVRQPPGKGLEWLGMIWGDGNTDYNSPLKSRLTISKDNSKSQVFLKMDSLQTDDTARYYCARDLKVRRDSPYTMDYWGQGTSVTVSS VL: NIMMTQSPSSLAVSAGEKVTMSCKSSQSVLYSSNQKNYLAWYQQKPGQSPKLLIYWASNRESGVPDRFTGSGSGTDFTLTISSVQAEDLAVYYCHQYLSSYTFGGGTKLEIK", "log10 of IC50": -1.23}
{"Binder": "CHA.7.514 (antibody, V domains shown) VH: EVQLRQSGADLVKPGASVKLSCTASGFNIKDTYIDWVKQRPEQGLDWIGRIDPANGNTKYDPKFQGKATIITDTSSNTAYLQLSNLTSEDTAVYYCARYGSYPYFDYWGRGTTLAVSS VL: SIVMTQTPKFLLISAGDRVTITCKASQSVRNDVAWYQQKPGQSPKLLMYYASNRYTGVPDRFTGSGYGTDFTFTISTVQAEDLAVYFCQQDYSSPPTFGGGTKLEIK", "log10 of IC50": -1.41}
{"Binder": "CHA.7.502 (antibody, V domains shown) VH: DVQLVESGGDLVQPGGSRKLSCTASGFTFSNFGMHWVRQAPEKGLEWVAYISSGSSTIYYADTVKGRFTISRDNPENTLFLQMTSLRSEDTAMYYCTRLDYYTNSYSMDHWGQGTSVTVSS VL: QIVLTQSPALMSASPGEKVTLTCSASSSLPYIYWYQQKPGSSPKPWIYLTSNLASGVPARFSGSRSGTSYSLTISSVEAEDAATYYCQQWSSNPFTFGSGTKLEIK", "log10 of IC50": -1.40}
{"Binder": "CHA.7.512 (antibody, V domains shown) VH: QIQLVQSGPELKKPRETVKISCKASGYTFTDYSMHWVKQAPGKGLKWMGWINTETGEPTYADDFKGRFAFSLEASASSAYLQINILKDEDTATYFCARSRGGYYEDYYALDYWGQGTSVTVSS VL: DIQMTQSPASLSASVGESVTITCRASGNIHYYLAWYQQKQGKSPQLLVYNAKNLADGVPSRFSGSGSGTQFSLKINSLQPEDFGSYYCQHFWISPPTFGGGTKLEIK", "log10 of IC50": -0.08}
{"Binder": "CHA.7.524 (antibody, V domains shown) VH: QVQLQQSGPEVVRPGVSVKISCKGSGYKFPDYVMHWVKQSHAKSLEWIGIISIYSGNTNYNQKFKGKATMTVDKSSSTAYMELARLTSEDSAIYYCAREGDLPMFAYWGQGTLVTVSA VL: QIVLTQSPAIMSASPGEKVTMTCNASSSVSYMYWYQQKPISSPRLLIYDTSNLASGVPVRFSGSGSGTSYSLTIGRMEAEDAATYYCQQWSSYPLTFGAGTKVEVK", "log10 of IC50": -1.52}
{"Binder": "CHA.7.534 (antibody, V domains shown) VH: EVQLQQSGAELVKPGASVRLSCTASGFSIRDTYIHWVKQRPEQGLDWIGKIDPANGKSEYDPKFQGRATMTTDTSSNTAYLQLSSLTSEDTAVYYCTRYGYYPYFDVWGAGTTVTVFS VL: SIVMTQTPKFLLVSAGDRVAITCKASQSVRHDVVWYQQKPGQSPKLLIYYASSRYTGVPDRFTGSGYGTDFTFTISTVQAEDLALYFCLQDFSSPWTFGGGTKLEIK", "log10 of IC50": -0.74}
